Recorded TGI by entry
- System: OVCAR-4 ovarian
- testSummary: NCI tumour cell line growth inhibition, 48 h

>  <compound>
CCc1n[nH]c(=O)n1/N=C/c1ccc(/C=N/n2c(CC)n[nH]c2=O)cc1

>  <TGI>
> 100 µM

$$$$
>  <compound>
COc1ccc(C(C)c2cc3c(cc2O)OCO3)cc1 (stereo not given)

>  <TGI>
> 100 µM

$$$$
>  <compound>
CC(C)(C)COC1C2(OCCO2)C2CCC1(C)C2(C)C (stereo not given)

>  <TGI>
> 100 µM

$$$$

Continue with the next compound.
Data request: // returns reported TGI for input CC(C)=CCNc1ncnc2c1c(C#N)cn2C1OC(CO)C(O)C1O (stereo not given)
Data returned: 23.3 µM

====

- Tested on: RXF 393 renal
- testSummary: NCI tumour cell line growth inhibition, 48 h; in the data active = GI50 below about 0.43 µM; inactive = the rest
Outcomes you can answer with include only these: active, inactive

As a guide, the following entries are already answered.
>  <molecule>
c1cc[n+](C2c3ccccc3C([n+]3ccccc3)c3ccccc32)cc1 (stereo not given)

>  <labelClass>
inactive

$$$$
>  <molecule>
COc1cc(/C=C/C(=O)c2ccc(Nc3nc(NCCO)nc(N4CCOCC4)n3)cc2)cc(OC)c1OC

>  <labelClass>
inactive

$$$$
>  <molecule>
CC1=C(C(=O)Nc2ccc(F)c(Cl)c2)C(c2cccc(Cl)c2)NC(=S)N1 (stereo not given)

>  <labelClass>
inactive

$$$$
>  <molecule>
ClCc1ccccc1Cn1cnc2c(Cl)nc(Cl)nc21

>  <labelClass>
inactive

$$$$
>  <molecule>
COc1cccc2[nH]c3c4c(c5c(c3c12)C(=O)N(CN1CCN(C)CC1)C5=O)CCC4

>  <labelClass>
inactive

$$$$

Data request: What did the test return for CCC[CH2][Sn]1([CH2]CCC)[O]CC(CN2CCCCC2)[O]1 (stereo not given) ?
Data returned: active

Data request: Kindly provide the recorded test outcome for the following molecule: COc1ccc(-c2cn[nH]c2-c2cc(OC)c(OC)c(OC)c2)cc1OCc1ccccc1
Data returned: inactive

Data request: Call for entry Nc1ccc(S(=O)(=O)c2ccc(N)cc2)cc1 :
Data returned: inactive

Data request: Called result for CC[C@H](C)[C@H](NC(=O)c1ccccn1)C(=O)N(C)[C@H](C[C@@H](OC(C)=O)c1nc(C(=O)N[C@@H](Cc2ccccc2)C[C@H](C)C(=O)OC)cs1)C(C)C
Data returned: inactive

Data request: Which outcome was assigned to CC[N+](CC)=c1cc2oc3cc(N(C)C)ccc3nc-2cc1C in this test?
Data returned: inactive

Data request: Please indicate how the test categorized CNC(=O)c1ccccc1Nc1cc(Nc2ccc(N3CCOCC3)cc2OC)ncc1C(F)(F)F .
Data returned: inactive

Data request: Can you look up the reported call for Clc1ccc(C(Cn2ccnc2)OCc2ccsc2Cl)c(Cl)c1 (stereo not given) for me?
Data returned: inactive

Data request: Hey, what did the test say about COc1cccc(C2=C(c3cn(C)c4ccc(Cl)cc34)C(=O)NC2=O)c1 ?
Data returned: inactive

Data request: Please share the test call associated with CN[C@@H](C)C(=O)N[C@H]1CCS[C@H]2CC(C)(C)[C@@H](C(=O)N[C@H]3c4ccccc4C[C@H]3OCC#CC#CCO[C@@H]3Cc4ccccc4[C@@H]3NC(=O)[C@H]3N4C(=O)[C@@H](NC(=O)[C@H](C)NC)CCS[C@H]4CC3(C)C)N2C1=O .
Data returned: active

Data request: Recorded call for NC(N)=NN=C(c1ccccc1)c1ccccc1 ?
Data returned: inactive

====

- System: K-562 leukemia
- testSummary: NCI tumour cell line growth inhibition, 48 h
quantity: TGI (µM)
Return type: number; implicit unit µM.

# annotated cases, reported TGI shown
>  <compoundStructureString>
O=C(c1ccc(Cl)c(Cl)c1)N1CCN(C(=O)c2ccc(Cl)c(Cl)c2)C1=S

>  <testValue>
60

$$$$
>  <compoundStructureString>
C[CH2][Sn]([CH2]C)([O]C(=O)c1ccccc1F)[O]C(=O)c1ccccc1F

>  <testValue>
55.1

$$$$

Okay, next one:
Data request: # TGI lookup, item COc1ccc2c(c1)n([O-])c1cc(C#N)ccc1[n+]2=O
Data returned: 97.4

====

- Test system: HOP-92 NSCLC
- testSummary: NCI tumour cell line growth inhibition, 48 h
// values below are reported GI50

Sample answers from the record:
>  <compoundStructureString>
Cc1ccc(S(=O)(=O)c2ccccc2)cc1

>  <testTarget>
HOP-92 NSCLC

>  <GI50>
2620 nM

$$$$
>  <compoundStructureString>
O=C1Nc2ccccc2/C1=C\c1c(-c2ccccc2)nc2ccccn12

>  <testTarget>
HOP-92 NSCLC

>  <GI50>
3980 nM

$$$$
>  <compoundStructureString>
OCCCCC#Cc1ccccc1C#Cc1ccccn1

>  <testTarget>
HOP-92 NSCLC

>  <GI50>
26600 nM

$$$$
>  <compoundStructureString>
O=C1/C(=C/c2ccccc2)CN(C(=O)CCN2CCC(=NO)CC2)C/C1=C\c1ccccc1

>  <testTarget>
HOP-92 NSCLC

>  <GI50>
2030 nM

$$$$
>  <compoundStructureString>
O=C(Nc1ncc(Cc2ccccc2)s1)c1sc2ccccc2c1Cl

>  <testTarget>
HOP-92 NSCLC

>  <GI50>
1230 nM

$$$$
>  <compoundStructureString>
COc1cc(-c2nccn2-c2ccc3ccccc3c2)cc(OC)c1OC

>  <testTarget>
HOP-92 NSCLC

>  <GI50>
10100 nM

$$$$
>  <compoundStructureString>
COc1ccc(-c2cn[nH]c2-c2cc(OC)c(OC)c(OC)c2)cc1OCc1ccccc1

>  <testTarget>
HOP-92 NSCLC

>  <GI50>
2010 nM

$$$$
>  <compoundStructureString>
COc1cc2c(/C=C3/C(=O)Nc4c3ccc3ccccc43)c(Cl)n(C)c2cc1C

>  <testTarget>
HOP-92 NSCLC

>  <GI50>
705 nM

$$$$

Data request: Provide value of GI50 for this record tested with HOP-92 NSCLC: CN[C@@H](C)C(=O)N[C@H]1CCS[C@H]2CC(C)(C)[C@@H](C(=O)N[C@H]3c4ccccc4C[C@H]3OCC#CC#CCO[C@@H]3Cc4ccccc4[C@@H]3NC(=O)[C@H]3N4C(=O)[C@@H](NC(=O)[C@H](C)NC)CCS[C@H]4CC3(C)C)N2C1=O
Data returned: 2990 nM

====

- Tested on: OVCAR-5 ovarian
- testSummary: NCI tumour cell line growth inhibition, 48 h
We use 30 µM as the dividing line for TGI: on or above the line is condition met, below is condition not met.

Would you please look over these solved cases?
>  <compound>
O=c1n(-c2ccc(Cl)c(Cl)c2)c(=O)n(-c2ccc(Cl)c(Cl)c2)c(=O)n1-c1ccc(Cl)c(Cl)c1

>  <labelClass>
condition not met

$$$$
>  <compound>
Cc1nc2ccccc2nc1NNc1ccccc1

>  <labelClass>
condition met

$$$$
>  <compound>
C=C1CC2(CC(c3ccccc3OC)OC(c3ccccc3OC)C2)OC1=O (stereo unspecified)

>  <labelClass>
condition not met

$$$$
>  <compound>
CC(C)(C)COC1C2(OCCO2)C2CCC1(C)C2(C)C (stereo unspecified)

>  <labelClass>
condition met

$$$$
>  <compound>
COc1cc2c(c(O)c1OC)C(=O)C1CCC(=O)N1C2c1cccc2ccccc12 (stereo unspecified)

>  <labelClass>
condition met

$$$$
>  <compound>
CCC(=O)Nc1ccc(NCC(=O)Nc2ccc(Cl)cc2)cc1

>  <labelClass>
condition met

$$$$
>  <compound>
O=C(Cc1n[nH]c(=O)c2ccccc12)OCc1c(Cl)cccc1Cl

>  <labelClass>
condition met

$$$$
>  <compound>
CC1CCC2C(C)(C)CC3(C)CCC1C23O (stereo unspecified)

>  <labelClass>
condition met

$$$$
>  <compound>
O=C(C1OC1c1ccc(F)cc1)C12CC3CC(CC(C3)C1)C2 (stereo unspecified)

>  <labelClass>
condition met

$$$$
>  <compound>
CCCCCCCCCCCCc1ccsc1-c1ccc(-c2ccc(-c3sc(-c4cc(CCCCCCCCCCCC)c(-c5ccc(-c6ccc(-c7sccc7CCCCCCCCCCCC)s6)s5)s4)cc3CCCCCCCCCCCC)s2)s1

>  <labelClass>
condition met

$$$$

Data request: Reported TGI at or above 30 µM? O=C(Nc1ncc(Cc2ccccc2)s1)c1sc2ccccc2c1Cl
Data returned: condition met

Data request: Reported TGI reaches at least 30 µM for Clc1ccc(C(Cn2ccnc2)OCc2ccsc2Cl)c(Cl)c1 (stereo unspecified) ?
Data returned: condition not met

Data request: Would you say N#Cc1c(N)c2c(c(-c3ccccc3)c1-c1ccccc1)C(=O)N(N)C2=O shows TGI at minimum 30 µM?
Data returned: condition met

Data request: Confirm if TGI reported for the compound O=C1/C=C/[C@@H](O)[C@@H]2C[C@@H](O)C[C@H]2/C=C/CCC[C@H](CCOCc2ccccc2)O1 is 30 µM or above.
Data returned: condition met

Data request: Hi team, for COc1ccc(/C=C2/SC(c3ccc(Cl)cc3)N(NC(=O)CCCCCCCCC(=O)NN3C(=O)/C(=C\c4ccc(OC)c(OC)c4)SC3c3ccc(Cl)cc3)C2=O)cc1OC (stereo unspecified) , is the recorded TGI at or above 30 µM?
Data returned: condition met

Data request: Form field: TGI at least 30 µM? Entry: CCC[CH2][Sn]1([CH2]CCC)[O]CC(CN2CCCCC2)[O]1 (stereo unspecified)
Data returned: condition not met

Data request: TGI >= 30 µM for NC(N)=NN=C(c1ccccc1)c1ccccc1 ?
Data returned: condition met

Data request: Has C=C(CBr)CCCOCc1ccccc1 a recorded TGI greater than or equal to 30 µM?
Data returned: condition met

Data request: Does CCc1n[nH]c(=O)n1/N=C/c1ccc(/C=N/n2c(CC)n[nH]c2=O)cc1 have a reported TGI of at least 30 µM?
Data returned: condition met

Data request: # check: TGI of COc1cc2c(c(OC)c1OC)-c1ccc(SC)c(=O)cc1[C@@H](NCc1ccccc1[N+](=O)[O-])CC2 is greater than or equal to 30 µM
Data returned: condition met

Data request: Threshold query (TGI >= 30 µM) on C[C@H]1[C@H](N2CCCC2)O[Si](C(C)(C)C)(C(C)(C)C)[C@@H]1C
Data returned: condition met
